Cited source for all entries: PubChem BioAssay AID1259376

Assay: bead signal artefacts at single dose – biochemical, AlphaScreen, triplicate, counter-screen for MITF inhibitor project (AID 1259376)
Conditions: LysRS AlphaScreen counterscreen, signal interference, at 2.6 µM, hits give high values
Among all 4,700 compounds or so, about 360 (7.7%) were called active. Only a sample is shown.
Think of 10% as a floor: if inhibition stands on it or above, it is label 1; beneath it, label 0.

COMPOUND | CLASSIFICATION
COc1ccc(CN2CCN(C3CCC(C)CC3)CC2)c(OC)c1OC (stereo not given) | label 0
CCOc1cccc(C2C(C(=O)OCCOc3ccccc3)=C(C)NC3=C2C(=O)CCC3)c1 (stereo not given) | label 1
CC1(C)CC(=O)C2=C(C1)Nc1ccccc1N(C(=O)Cc1ccccc1)C2c1ccc(-c2ccc([N+](=O)[O-])cc2)o1 (stereo not given) | label 1
CSc1nnc(SCc2nc3sc(C(=O)O)c(C)c3c(=O)[nH]2)s1 | label 1
COc1ccc2c(c1)CC(C(=O)Nc1ccc(-c3cn[nH]c3)cc1OCc1ccccc1)CO2 (stereo not given) | label 1
CC1CCN(S(=O)(=O)c2ccc(Cl)c(C(=O)Nc3ccccc3[N+](=O)[O-])c2)CC1 | label 1
COc1cc(CN2CCN(Cc3ccccc3Cl)CC2)cc(OC)c1OC | label 1
COc1cccc(-c2ncnn2-c2sc3c(c2C#N)CCCCC3)c1 | label 1
COc1cccc(CN2CCN(C(=O)c3ccccc3F)CC2)c1 | label 0
CCCCCOc1ccc(OC(=O)c2ccc(-c3ccc(CCC)cn3)cc2)cc1 | label 0

###

Experiment: bead signal artefacts at single dose – biochemical, AlphaScreen, triplicate, counter-screen for MITF inhibitor project (AID 1259376)
Conditions: LysRS AlphaScreen counterscreen, signal interference, at 2.6 µM, hits give high values
Screen size: about 4,700 compounds; about 360 (7.7%) were called active. Not all results are given here.
Reported inhibition by item:
ENDPOINT NAME: inhibition (%)

COMPOUND | ENDPOINT NAME | OBSERVED
O=[N+]([O-])c1ccccc1CN1CCN(Cc2ccccc2C(F)(F)F)CC1 | inhibition | 9.98
COc1ccc(CN2CCC(C(=O)N3CCN(Cc4ccccc4)CC3)CC2)cc1 | inhibition | 8.38
COc1ccc(C(=O)COC(=O)CNS(=O)(=O)/C=C/c2ccc(C)cc2)cc1OC | inhibition | 5.32
COc1ccc(C(=O)N2CCN(Cc3ccccc3C(F)(F)F)CC2)cc1OC | inhibition | 20.4
CCN1CCN(CCOc2ccc(-c3ccccc3)cc2)CC1 | inhibition | 9.15
COc1cc(N2CCOCC2)ccc1Nc1cc(Nc2ccccc2-n2cccn2)c(C(F)(F)F)cn1 | inhibition | 8.51
c1ccc(Oc2cccc(OCCCCn3cncn3)c2)cc1 | inhibition | 0.8
CN(CCC(=O)O)Cc1cccc(Cl)c1 | inhibition | -6.2
OCCOCCN1CCN(Cc2ccc(Cl)cc2)CC1 | inhibition | 3.33
COc1ccc(NC(=O)c2cc3n(n2)C(C(F)(F)F)CC(c2ccc(OC)c(OC)c2)N3)cc1OC (stereo unspecified) | inhibition | -6.86
O=C(OCCN1CCOCC1)c1c(Cl)nc2sccn12 | inhibition | 10.9

###

Test: bead signal artefacts at single dose – biochemical, AlphaScreen, triplicate, counter-screen for MITF inhibitor project (AID 1259376)
Conditions: LysRS AlphaScreen counterscreen, signal interference, at 2.6 µM
Among all 4,700 compounds or so, about 360 (7.7%) were called active.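 Rule for the calls: active = inhibition above a cutoff derived from the DMSO control wells (cut at about 30% in these data); inactive = the rest.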 A selection follows.
Labels: active, inactive

COMPOUND | CLASSIFICATION
CCOc1ccc(CN2CCN(C(=O)c3cccc(Cl)c3)CC2)cc1 | inactive
CCCCC(=O)NCc1ccc(F)cc1 | inactive
COc1ccc(OC)c(CN2CCN(Cc3ccccc3OC)CC2)c1 | inactive
CCN(C(=O)Cc1nc(N)n[nH]1)C1(C(=O)Nc2ccccc2)CCCCC1 | active
Nc1ccc(S(=O)(=O)O)c2cc(S(=O)(=O)O)cc(O)c12 | active
COc1cc(CN2CCN(Cc3ccc(Cl)cc3)CC2)c([N+](=O)[O-])cc1OC | inactive
CCN(C(=O)Cc1nc(N)n[nH]1)C1(C(=O)Nc2ccc(C)cc2)CCCCC1 | active
C/C(N)=C(/C#N)C(=O)COC(=O)c1c2c(nc3ccccc13)/C(=C/c1ccco1)CC2 | inactive
Cc1cccc(NC(=O)CNCCN2CCCCC2)c1C | inactive
COc1ccc(COCC(O)CNCC(C)(C)CN(C)C)cc1OC (stereo unspecified) | inactive
Cc1cccc(CSc2n[nH]c(=O)[nH]c2=O)c1 | inactive
